Value source: patent US8252751B2

Target: human PEP (Homo sapiens)
Construct: human PEP covering amino acid 1-710; made in house; host or cells: Pichia pastoris
Sequence (P48147 whole entry): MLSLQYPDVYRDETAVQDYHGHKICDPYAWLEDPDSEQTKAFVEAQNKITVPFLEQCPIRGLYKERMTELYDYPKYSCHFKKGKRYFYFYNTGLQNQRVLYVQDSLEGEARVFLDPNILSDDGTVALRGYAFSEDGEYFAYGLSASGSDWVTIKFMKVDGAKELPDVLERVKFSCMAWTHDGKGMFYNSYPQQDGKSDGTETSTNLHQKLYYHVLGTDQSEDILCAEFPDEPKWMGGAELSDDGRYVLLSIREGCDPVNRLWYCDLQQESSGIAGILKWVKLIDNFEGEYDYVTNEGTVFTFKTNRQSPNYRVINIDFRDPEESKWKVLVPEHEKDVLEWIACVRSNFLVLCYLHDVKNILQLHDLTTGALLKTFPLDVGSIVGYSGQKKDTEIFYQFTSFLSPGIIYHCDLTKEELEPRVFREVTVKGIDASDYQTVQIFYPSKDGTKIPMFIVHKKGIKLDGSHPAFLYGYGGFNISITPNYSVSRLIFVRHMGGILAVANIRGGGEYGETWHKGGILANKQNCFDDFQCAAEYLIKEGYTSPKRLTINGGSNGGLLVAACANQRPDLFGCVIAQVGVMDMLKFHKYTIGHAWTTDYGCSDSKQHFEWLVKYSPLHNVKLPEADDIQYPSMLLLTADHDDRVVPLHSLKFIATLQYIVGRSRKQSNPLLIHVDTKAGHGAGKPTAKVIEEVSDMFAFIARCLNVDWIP
Assay: PEP (prolyl-endopeptidase) IC50 assay, Z-Gly-Pro-AMC fluorescence intensity
Type: biochemical
Conditions: mean of 4 experiments, read-out: Mean IC50 value ± SD
assay.readout: pIC50
The value called pIC50 is obtained by taking minus log10 of the concentration in mol/L.

Tell me pIC50 reported for N#C[C@@H]1CCCN1C(=O)CNC12CC3CC(C1)CC(O[C@@H]1O[C@H](C(=O)O)[C@@H](O)[C@H](O)[C@H]1O)(C3)C2 [NVP-BQS867-NX-2]
4.60
